B1: RTN1 (parent)
chain: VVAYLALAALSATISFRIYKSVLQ

# Variants of: B1
# measurement-description: protein stability index of a GFP-peptide fusion (GPS, HEK-293T) (PSI 1-6); higher = more stable;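 also: lentivirally expressed fusions sorted by FACS into six bins by GFP to DsRed ratio, PSI derived from sequencing read proportions per bin multiplied by bin number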
# conditions-used: c terminus: a fixed tail appended
property-label: protein stability index
Just the number, please, no unit after it.

>  <mutant-designation>
V22H

>  <protein stability index>
2.31

$$$$
>  <mutant-designation>
Q24G

>  <protein stability index>
2.92

$$$$
>  <mutant-designation>
L10K

>  <protein stability index>
2.42

$$$$
>  <mutant-designation>
F16S

>  <protein stability index>
2.99

$$$$
>  <mutant-designation>
S11H

>  <protein stability index>
2.33

$$$$
>  <mutant-designation>
I18F

>  <protein stability index>
2.06

$$$$

Input line: Give the measured protein stability index for S21T
Output line: 3.04
